- measured.target: T1, TNF-α (UniProt P01375 77-233, limits assumed)
- T1 construct: also called tumor necrosis factor; ligand
- measurement.notes: competition ELISA: sample vs plate-bound TNFRI190 for TNF-α, from IC50, relative to wild-type TNFRI171
- Procedure: Each well was washed three times with 300 μL of washing buffer (0.05% Tween-20, PBS, pH 7.4) and incubated at room temperature for 2 hours with 300 μL of a blocking buffer (5% skim milk, PBS, pH 7.4). Then, each well was washed as mentioned above. A sample of interest was diluted to concentrations of 500 nM, 125 nM, 31 nM, 7.8 nM, 1.9 nM, 0.48 nM, 0.12 nM, and 0.03 nM in series and loaded in an amount of 100 μL into each well in duplicate. […]
Reported Relative Affinity for Ligand (%) values for the following binders.
Numbers only here, please. The scale is %.

Answered examples (5):
binder: TNFRI171-S38 (receptor, Met-TNFRI171 superlead mutant made in E. coli) MDSVCPQGKYIHPQNNSICCTKCHKGTYLYNDCPGPGQDTDCRECESGSFTAMENFLPACLSCSKCRKEMGQVEISSCTVDRDTVCGCRKNQYRHYWSENLFQCFNCSLCLNGTVHLSCQENQNTVCTCHAGFFLRENECVSCSNCKKSLECTKLCLPQIENVKGTEDSGTT
units.symbol: %
Relative Affinity for Ligand (%): 589
//
binder: TNFRI171-S58 (receptor, Met-TNFRI171 superlead mutant made in E. coli) MDSVCPQGKYIHPQNNSICCTKCHKGTYVYNDCPGPGQDTDCRECESGSFTAMENFLPACLSCSKCRKEMGQVEISSCTVDRDTVCGCRKNQYRHYWSENLFQCFNCSLCLNGTVHLSCQEKQNTVCTCHAGFFLRENECVSCSNCKKSLECTKLCLPQIENVKGTENSGTT
units.symbol: %
Relative Affinity for Ligand (%): 978
//
binder: TNFRI171-S60 (receptor, Met-TNFRI171 superlead mutant made in E. coli) MDSVCPQGKYIHPQNNSICCTKCHKGTYVYNDCPGPGQDTDCRECESGSFTAHENFLPACLSCSKCRKEMGQVEISSCTVDRDTVCGCRKNQYRHYWSENLFQCFNCSLCLNGTVHLSCQENQNTVCTCHAGFFLRENECVSCSNCKKSLECTKLCLPQIENVKGTEDSGTT
units.symbol: %
Relative Affinity for Ligand (%): 775
//
binder: TNFRI171-S37 (receptor, Met-TNFRI171 superlead mutant made in E. coli) MDSVCPQGKYIHPQNNSICCTKCHKGTYLYNDCPGPGQDTDCRECESGSFTAMENFLPACLSCSKCRKEMGQVEISSCTVDRDTVCGCRKNQYRHYWSENLFQCFNCSLCLNGTVHLSCQEQQNTVCTCHAGFFLRENECVSCSNCKKSLECTKLCLPQIENVKGTEDSGTT
units.symbol: %
Relative Affinity for Ligand (%): 668
//
binder: TNFRI171-S47 (receptor, Met-TNFRI171 superlead mutant made in E. coli) MDSVCPQGKYIHPQNNSICCTKCHKGTYVYNDCPGPGQDTDCRECESGSFTAMENFLPGCLSCSKCRKEMGQVEISSCTVDRDTVCGCRKNQYRHYWSENLFQCFNCSLCLNGTVHLSCQEKQNTVCTCHAGFFLRENECVSCSNCKKSLECTKLCLPQIENVKGTEDSGTT
units.symbol: %
Relative Affinity for Ligand (%): 758

The binder listed as TNFRI171-S63 (receptor, Met-TNFRI171 superlead mutant made in E. coli; also called TNFRI-S63) MDSVCPQGKYIHPQNNSICCTKCHKGTYVYNDCPGPGQDTDCRECESGSFTAMENFLPGCLSCSKCRKEMGQVEISSCTVDRDTVCGCRKNQYRHYWSENLFQCFNCSLCLNGTVHLSCQENQNTVCTCHAGFFLRENECVSCSNCKKSLECTKLCLPQIENVKGTEDSGTT has a reported Relative Affinity for Ligand (%) of 1350

TNFRI171-S59 (receptor, Met-TNFRI171 superlead mutant made in E. coli) MDSVCPQGKYIHPQNNSICCTKCHKGTYVYNDCPGPGQDTDCRECESGSFTAHENFLPACLSCSKCRKEMGQVEISSCTVDRDTVCGCRKNQYRHYWSENLFQCFNCSLCLNGTVHLSCQEQQNTVCTCHAGFFLRENECVSCSNCKKSLECTKLCLPQIENVKGTEDSGTT yielded Relative Affinity for Ligand (%) of 684

Lab book: Relative Affinity for Ligand (%) of TNFRI171-S32 (receptor, Met-TNFRI171 superlead mutant made in E. coli) MDSVCPQGKYIHPQNNSICCTKCHKGTYLYNDCPGPGQDTDCRECESGSFTAIENFLPACLSCSKCRKEMGQVEISSCTVDRDTVCGCRKNQYRHYWSENLFQCFNCSLCLNGTVHLSCQEQQNTVCTCHAGFFLRENECVSCSNCKKSLECTKLCLPQIENVKGTEDSGTT noted as 668

Reported Relative Affinity for Ligand (%) ( TNFRI171-S61 (receptor, Met-TNFRI171 superlead mutant made in E. coli) MDSVCPQGKYIHPQNNSICCTKCHKGTYVYNDCPGPGQDTDCRECESGSFTAHENFLPACLSCSKCRKEMGQVEISSCTVDRDTVCGCRKNQYRHYWSENLFQCFNCSLCLNGTVHLSCQEKQNTVCTCHAGFFLRENECVSCSNCKKSLECTKLCLPQIENVKGTENSGTT ) = 778
